# key: entry, value: pIC50
TARGET SYSTEM: T1, recombinant PD-1 extracellular domain Fc fusion protein (PD-1 Fc) (human, biotin label (sites not given) in the ELISA binding assay; unlabelled when coated in the ligand blocking assay)
T1 construct: also called human PD-1Fc; human PD-1
PROCEDURE DETAILS: ligand binding blocking ELISA as in Example 2, competitor biotin-labeled PD-L1
Description: In this experiment, a 96-well plate was coated with a PD-1 protein with the extracellular domain fused with FC (PD-1-FC), and incubated with the test PD-1 antibody; later biotin-labeled PD-L1 was added for incubation. After washing the plate, the binding amount of biotin-labeled PD-L1 was detected; the blocking IC₅₀ value of PD-1 antibody for ligand PD-L1 binding was calculated. […]
pIC50 here: minus log base 10 of the concentration, concentration in moles per litre.

{"BINDER": "humanized antibody H005-4 (antibody, human IgG4 S228P, kappa, F234A L235A, name in Kabat numbering, V domains shown, Back-mutated variant of H005-1, IgG4 constant region) VH: EVQLVESGGGLVQPGGSLRLSCAASGFTFSSYMMSWVRQAPGKRLEWVATISGGGANTYYPDSVKGRFTISRDNAKNSLYLQMNSLRAEDTAVYYCARQLYYFDYWGQGTTVTVSS VL: DIQMTQSPSSLSASVGDRVTITCLASQTIGTWLTWYQQKPGKSPKLLIYTATSLADGVPSRFSGSGSGTDFTLTISSLQPEDFATYYCQQVYSIPWTFGGGTKVEIKR", "pIC50": 8.87}
{"BINDER": "humanized antibody H005-3 (antibody, human IgG4 S228P, kappa, F234A L235A, name in Kabat numbering, V domains shown, Back-mutated variant of H005-1, IgG4 constant region) VH: EVQLVESGGGLVQPGGSLRLSCAASGFTFSSYMMSWVRQAPGKGLEWVATISGGGANTYYPDSVKGRFTISRDNAKNSLYLQMNSLRAEDTAVYYCARQLYYFDYWGQGTTVTVSS VL: DIQMTQSPSSLSASVGDRVTITCLASQTIGTWLTWYQQKPGKSPKLLIYTATSLADGVPSRFSGSGSGTDFTLTISSLQPEDFATYYCQQVYSIPWTFGGGTKVEIKR", "pIC50": 8.88}

Enquiry: Can you look up the measured pIC50 of humanized antibody H005-1 (antibody, human IgG4 S228P, kappa, F234A L235A, V domains shown, CDR graft of mAb005 on IgHV3-7/JH6 and IGKV1-39/JK4, IgG4 constant region; expressed in HEK293 cells; also called PD-1 antibody H005-1) VH: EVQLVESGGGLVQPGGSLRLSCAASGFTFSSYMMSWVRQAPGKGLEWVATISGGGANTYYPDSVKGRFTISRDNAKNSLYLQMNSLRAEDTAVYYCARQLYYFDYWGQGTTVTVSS VL: DIQMTQSPSSLSASVGDRVTITCLASQTIGTWLTWYQQKPGKAPKLLIYTATSLADGVPSRFSGSGSGTDFTLTISSLQPEDFATYYCQQVYSIPWTFGGGTKVEIKR for me?
Return: 8.90

Enquiry: Another binder to look at: humanized antibody H005-2 (antibody, human IgG4 S228P, kappa, F234A L235A, name in Kabat numbering, V domains shown, Back-mutated variant of H005-1, IgG4 constant region) VH: EVQLVESGGGLVQPGGSLRLSCAASGFTFSSYMMSWVRQAPGKRLEWVATISGGGANTYYPDSVKGRFTISRDNAKNSLYLQMNSLRAEDTAVYYCARQLYYFDYWGQGTTVTVSS VL: DIQMTQSPSSLSASVGDRVTITCLASQTIGTWLTWYQQKPGKAPKLLIYTATSLADGVPSRFSGSGSGTDFTLTISSLQPEDFATYYCQQVYSIPWTFGGGTKVEIKR
Return: 8.90
